Recorded values, source patent US11566007B2.

# study.system: KRAS G12S (Homo sapiens (Human), UniProt P01116+P62937, G12S)
# Sequence (P01116-2 other isoform, or with tags, fused parts or gaps G12S): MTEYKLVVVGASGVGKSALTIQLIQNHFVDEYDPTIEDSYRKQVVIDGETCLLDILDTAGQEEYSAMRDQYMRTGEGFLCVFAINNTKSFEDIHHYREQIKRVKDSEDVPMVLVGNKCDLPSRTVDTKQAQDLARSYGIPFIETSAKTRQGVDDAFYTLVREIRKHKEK
# Sequence (P62937 whole entry): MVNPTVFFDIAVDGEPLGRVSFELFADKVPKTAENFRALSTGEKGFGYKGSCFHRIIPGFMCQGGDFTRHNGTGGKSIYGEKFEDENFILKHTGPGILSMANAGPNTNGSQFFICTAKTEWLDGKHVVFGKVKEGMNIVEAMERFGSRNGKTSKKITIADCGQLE
# experiment: Ras-Raf (BRAF RBD) disruption / FRET / MOA assay, KRAS G12S
# Format: biochemical
# run.parameters: Ras-Raf disruption/FRET/MOA assay; class symbols; read-out: KRAS G12S FRET data IC50
observed.property: IC50

molecule	assay.value
CCn1c(-c2cccnc2[C@H](C)OC)c2c3cc(ccc31)-c1csc(n1)C[C@H](NC(=O)[C@H](C(C)C)N(C)C(=O)N(C)C1CN(C(=O)/C=C/[C@H]3CCCN3C)C1)C(=O)N1CCC[C@H](N1)C(=O)OCC(C)(C)C2 (atropisomer, axis not shown)	100 to 1000 nM
CCn1c(-c2cccnc2[C@H](C)OC)c2c3cc(ccc31)-c1cccc(c1)C[C@H](NC(=O)[C@H](C(C)C)N(C)C(=O)[C@H]1CCN(C(=O)C#CC3CCO3)C1)C(=O)N1CCC[C@H](N1)C(=O)OCC(C)(C)C2 (mixture of isomers)	1000 to 10000 nM
CCn1c(-c2cccnc2[C@H](C)OC)c2c3cc(ccc31)-c1cccc(c1)C[C@H](NC(=O)[C@@H](CO[C@@H]1CCN(C(=O)C#CC(C)(C)N(C)C)C1)C(C)C)C(=O)N1CCC[C@H](N1)C(=O)OCC(C)(C)C2 (atropisomer, axis not shown)	> 10000 nM
C=CC(=O)N1C[C@@H](C(=O)N(C)[C@H](C(=O)N[C@H]2Cc3cccc(c3)-c3ccc4c(c3)c(c(-c3cccnc3[C@H](C)OC)n4CC)CC(C)(C)COC(=O)[C@@H]3CCCN(N3)C2=O)C(C)C)C(C)(C)C1 (atropisomer, axis not shown)	1000 to 10000 nM

---

# study.system: K-Ras G13C (Homo sapiens (Human), UniProt P01116+P62937, G13C)
# Sequence (P01116-2 other isoform, or with tags, fused parts or gaps G13C): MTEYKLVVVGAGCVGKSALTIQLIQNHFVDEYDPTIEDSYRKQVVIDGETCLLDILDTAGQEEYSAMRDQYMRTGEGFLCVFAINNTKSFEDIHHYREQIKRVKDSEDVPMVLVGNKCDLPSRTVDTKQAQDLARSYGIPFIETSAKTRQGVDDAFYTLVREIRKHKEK
# Sequence (P62937 whole entry): as the sequence (P62937 whole entry) above
# experiment: Ras-Raf (BRAF RBD) disruption / FRET / MOA assay, KRAS G13C
# Assay type: biochemical
# run.parameters: KRAS G13C; Ras-Raf disruption/FRET/MOA assay; read-out: IC50* KRAS G13C FRET data
pIC50: −log10 of the molar value.
Listed molecules paired with reported pIC50
observed.property: pIC50

molecule	assay.value
C=CC(=O)N1CCC12CN(C(=O)N(C)[C@H](C(=O)N[C@H]1Cc3nc(cs3)-c3ccc4c(c3)c(c(-c3cccnc3[C@H](C)OC)n4CC)CC(C)(C)COC(=O)[C@@H]3CCCN(N3)C1=O)C(C)C)C2 (atropisomer, axis not shown)	6.00 to 7.00
C=CC(=O)N1C[C@@H](C)[C@H](C(=O)N(C)[C@H](C(=O)N[C@H]2Cc3cccc(c3)-c3ccc4c(c3)c(c(-c3cccnc3[C@H](C)OC)n4CC)CC(C)(C)COC(=O)[C@@H]3CCCN(N3)C2=O)C(C)C)C1 (atropisomer, axis not shown)	6.00 to 7.00
C=CC(=O)N1CCOC2(CCN(C(=O)N(C)[C@H](C(=O)N[C@H]3Cc4cccc(c4)-c4ccc5c(c4)c(c(-c4cccnc4[C@H](C)OC)n5CC(F)(F)F)CC(C)(C)COC(=O)[C@@H]4CCCN(N4)C3=O)C(C)C)CC2)C1 (atropisomer, axis not shown)	7.00 to 8.00
CCn1c(-c2cccnc2[C@H](C)OC)c2c3cc(ccc31)-c1cccc(c1)C[C@H](NC(=O)[C@H](C(C)C)N1CC[C@@]3(CCN(C(=O)C#C[C@@H]4COCCN4C)C3)C1=O)C(=O)N1CCC[C@H](N1)C(=O)OCC(C)(C)C2 (atropisomer, axis not shown)	6.00 to 7.00

---

Listed compounds paired with reported pIC50
# Test system: NCI-H358 (K-Ras G12C)
# experiment: CellTiter-Glo cell viability assay, NCI-H358
# Type: cell-based, human
# run.parameters: Homo sapiens, NCI-H358, 120 h, NCI-H358, 5-day treatment; class symbols; read-out: Additional H358 Cell Viability assay data (K-Ras G12C, IC50)
pIC50: −log10 of the molar value.

compound	study.system	pIC50
C=CC(=O)N1CC[C@H](C(=O)N(C)[C@H](C(=O)N[C@H]2Cc3cc(O)cc(c3)-c3ccc4c(c3)c(c(-c3ccc5c(c3)OCCN5C)n4CC)CC(C)(C)COC(=O)[C@@H]3CCCN(N3)C2=O)C(C)C)C1	NCI-H358 (K-Ras G12C)	6.00 to 7.00
CCn1c(-c2cccnc2[C@H](C)OC)c2c3cc(ccc31)-c1cccc(c1)C[C@H](NC(=O)[C@H](C(C)C)N(C)C(=O)[C@H]1CCN(C(=O)C#CC3CCO3)C1)C(=O)N1CCC[C@H](N1)C(=O)OCC(C)(C)C2 (mixture of isomers)	NCI-H358 (K-Ras G12C)	> 8.00
C=CC(=O)N1CC[C@H](C(=O)N(C)[C@H](C(=O)N[C@H]2Cc3cc(O)cc(c3)-c3ccc4c(c3)c(c(-c3ccc(OCC(=O)O)cc3)n4CC)CC(C)(C)COC(=O)[C@@H]3CCCN(N3)C2=O)C(C)C)C1	NCI-H358 (K-Ras G12C)	< 6.00
CCn1c(-c2cncnc2)c2c3cc(ccc31)-c1cccc(c1)C[C@H](NC(=O)[C@H](C(C)C)N(C)C(=O)[C@H]1CCN(C(=O)C#CCN3CCOCC3)C1)C(=O)N1CCC[C@H](N1)C(=O)OCC(C)(C)C2	NCI-H358 (K-Ras G12C)	6.00 to 7.00

---

# study.system: KRAS G12V (Homo sapiens (Human), UniProt P01116+P62937, G12V)
# Sequence (P01116-2 other isoform, or with tags, fused parts or gaps G12V): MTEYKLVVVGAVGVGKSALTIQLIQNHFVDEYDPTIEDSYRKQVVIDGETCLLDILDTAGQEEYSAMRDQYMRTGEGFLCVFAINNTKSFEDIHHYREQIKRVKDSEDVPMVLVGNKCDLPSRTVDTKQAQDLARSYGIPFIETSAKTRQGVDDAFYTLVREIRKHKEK
# Sequence (P62937 whole entry): as the sequence (P62937 whole entry) above
# experiment: Ras-Raf (BRAF RBD) disruption / FRET / MOA assay, KRAS G12V
# Format: biochemical
# run.parameters: read-out: IC50* KRAS G12V FRET data
pIC50: −log10 of the molar value.
observed.property: pIC50

molecule	study.system	assay.value
C=CC(=O)N1CCO[C@@H]2CN(C(=O)N(C)[C@H](C(=O)N[C@H]3Cc4nc(cs4)-c4ccc5c(c4)c(c(-c4cccnc4[C@H](C)OC)n5CC)CC(C)(C)COC(=O)[C@@H]4CCCN(N4)C3=O)C(C)C)C[C@H]21 (atropisomer, axis not shown)	KRAS G12V (Homo sapiens (Human), UniProt P01116+P62937, G12V)	6.00 to 7.00
C=CC(=O)N(C)C[C@H]1CCN1C(=O)N(C)[C@H](C(=O)N[C@H]1Cc2nc(cs2)-c2ccc3c(c2)c(c(-c2cccnc2[C@H](C)OC)n3CC)CC(C)(C)COC(=O)[C@@H]2CCCN(N2)C1=O)C(C)C (atropisomer, axis not shown)	KRAS G12V (Homo sapiens (Human), UniProt P01116+P62937, G12V)	6.00 to 7.00
CCn1c(-c2cccnc2[C@H](C)OC)c2c3cc(ccc31)-c1csc(n1)C[C@H](NC(=O)[C@H](C(C)C)N(C)C(=O)N(C)C1CN(C(=O)/C=C/CN(C)C)C1)C(=O)N1CCC[C@H](N1)C(=O)OCC(C)(C)C2 (atropisomer, axis not shown)	KRAS G12V (Homo sapiens (Human), UniProt P01116+P62937, G12V)	6.00 to 7.00
CCn1c(-c2cccnc2[C@H](C)OC)c2c3cc(ccc31)-c1cc(O)cc(c1)C[C@H](NC(=O)[C@H](C(C)C)N(C)C(=O)[C@H]1CCN(C(=O)C#CCN3[C@H](C)COC[C@@H]3C)C1)C(=O)N1CCC[C@H](N1)C(=O)OCC(C)(C)C2 (atropisomer, axis not shown)	KRAS G12V (Homo sapiens (Human), UniProt P01116+P62937, G12V)	7.00 to 8.00

---

# study.system: KRAS WT (Homo sapiens (Human), UniProt P01116+P62937)
# Sequence (P01116-2 other isoform, or with tags, fused parts or gaps): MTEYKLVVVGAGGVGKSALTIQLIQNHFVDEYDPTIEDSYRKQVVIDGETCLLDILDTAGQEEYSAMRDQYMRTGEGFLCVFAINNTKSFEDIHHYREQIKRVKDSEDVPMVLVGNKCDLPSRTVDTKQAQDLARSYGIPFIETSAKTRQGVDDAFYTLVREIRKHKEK
# Sequence (P62937 whole entry): as the sequence (P62937 whole entry) above
# experiment: Ras-Raf (BRAF RBD) disruption / FRET / MOA assay, KRAS WT
# Format: biochemical
# run.parameters: read-out: IC50* KRAS WT FRET data
pIC50: −log10 of the molar value.

compound	study.system	pIC50
C=CC(=O)N1CC[C@H](C(=O)N(C)[C@H](C(=O)N[C@H]2Cc3cccc(c3)-c3ccc4c(c3)c(c(-c3cccnc3[C@H](C)OC)n4CC)CC(C)(C)COC(=O)[C@@H]3CCCN(N3)C2=O)C2CCC2)C1 (atropisomer, axis not shown)	KRAS WT (Homo sapiens (Human), UniProt P01116+P62937)	5.00 to 6.00
CCn1c(-c2cccnc2[C@H](C)OC)c2c3cc(ccc31)-c1csc(n1)C[C@H](NC(=O)[C@H](C(C)C)N(C)C(=O)[C@H]1CCN(C(=O)C#CCN3CCOCC3)C1)C(=O)N1CCC[C@H](N1)C(=O)OCC(C)(C)C2 (atropisomer, axis not shown)	KRAS WT (Homo sapiens (Human), UniProt P01116+P62937)	< 5.00
CCn1c(-c2cccnc2[C@H](C)OC)c2c3cc(ccc31)-c1csc(n1)C[C@H](NC(=O)[C@@H](F)COC1CN(C(=O)C#CC(C)(C)N(C)C)C1)C(=O)N1CCC[C@H](N1)C(=O)OCC(C)(C)C2 (atropisomer, axis not shown)	KRAS WT (Homo sapiens (Human), UniProt P01116+P62937)	5.00 to 6.00
CCn1c(-c2cccnc2[C@H](C)OC)c2c3cc(ccc31)-c1cc(cc(C(F)F)c1)C[C@H](NC(=O)[C@H](C1CCCC1)N(C)C(=O)[C@H]1CCN(C(=O)C#CC(C)(C)N3CCC3)C1)C(=O)N1CCC[C@H](N1)C(=O)OCC(C)(C)C2 (atropisomer, axis not shown)	KRAS WT (Homo sapiens (Human), UniProt P01116+P62937)	5.00 to 6.00
